Quick reference for IC50 among some compounds
Biological target: cortisol synthase (CYP11B1) (Macaca fascicularis)
Assay: Inhibition of cortisol synthesis (cynomolgus adrenal mitochondria, cortisol by mass spectrometry)
Assay type: biochemical, cynomolgus monkey
Conditions: 11-deoxycortisol substrate, 150 units CYP11B1; read-out: Cortisol Inhibition IC50

{"columns": ["compound", "IC50"],
 "data": [
  ["CC1(C)CC(=O)c2c(ncn2-c2ccc(Cl)nc2)C1", "6.9 µM"],
  ["CC1(C)CC(=O)c2c(ncn2C2CCCCc3ccccc32)C1 (centres unmarked)", "7.2 µM"],
  ["O=C1CCCc2ncn(-c3ccc4c(c3)CCCN4)c21", "> 30 µM"],
  ["CC1(C)CC(=O)c2c(ncn2C2CC3(COC3)C2)C1", "> 30 µM"]
]}

Q: What value of IC50 has been recorded for this entry: "COC(=O)c1ccc(Cn2cnc3c2C(=O)CC(C)(C)C3)cc1"
Result: 1.4 µM

Taken from patent US10858342B2.
